For each record, write down the corresponding Inhibition at 10µM (%).
- target under test: CDK14/Cyclin Y (Homo sapiens)
- Sequence (O94921 whole entry, one chain of several): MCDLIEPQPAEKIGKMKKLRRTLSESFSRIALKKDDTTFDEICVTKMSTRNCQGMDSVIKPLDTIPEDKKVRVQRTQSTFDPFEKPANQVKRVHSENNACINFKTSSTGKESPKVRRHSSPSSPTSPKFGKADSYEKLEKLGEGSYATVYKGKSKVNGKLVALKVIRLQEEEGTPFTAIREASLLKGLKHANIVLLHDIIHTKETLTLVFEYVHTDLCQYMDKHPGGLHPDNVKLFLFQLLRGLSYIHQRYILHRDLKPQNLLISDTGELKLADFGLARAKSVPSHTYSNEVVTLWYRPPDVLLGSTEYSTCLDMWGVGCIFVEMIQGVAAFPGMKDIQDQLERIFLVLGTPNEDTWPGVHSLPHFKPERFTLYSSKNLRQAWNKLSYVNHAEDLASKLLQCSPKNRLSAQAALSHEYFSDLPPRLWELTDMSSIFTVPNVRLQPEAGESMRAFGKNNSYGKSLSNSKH
- method description: NanoBRET live-cell target engagement, CDK14-NanoLuc/Cyclin Y in HEK-293
- Assay type: binding
- condition summary: CDK14/Y; experiment 1
Answer with a number only, understood to be in %.

Data request: Which measured Inhibition at 10µM (%) belongs to CS(=O)(=O)N1CCC(NC(=O)c2[nH]ncc2NC(=O)c2c(Cl)cccc2Cl)CC1 , tested on CDK14/Cyclin Y (Homo sapiens)?
Data returned: 90.7

Data request: Which measured Inhibition at 10µM (%) belongs to CN1CCC(c2c(O)cc(O)c3c(=O)cc(-c4ccccc4Cl)oc23)C1CO (stereo not drawn) , tested on CDK14/Cyclin Y (Homo sapiens)?
Data returned: 51.1

Data request: Which measured Inhibition at 10µM (%) belongs to CNc1nc(C)c(-c2nc(Nc3cccc(S(N)(=O)=O)c3)ncc2F)s1 , tested on CDK14/Cyclin Y (Homo sapiens)?
Data returned: 93.7

Data request: Which measured Inhibition at 10µM (%) belongs to CC(C)c1cnn2c(NCc3ccccc3-n3cccn3)nc(OC3CCCNC3)nc12 (stereo not drawn) , tested on CDK14/Cyclin Y (Homo sapiens)?
Data returned: 88.6

Data request: Which measured Inhibition at 10µM (%) belongs to CCn1cnc2c(Nc3cccc(Cl)c3)nc(N[C@@H]3CCCC[C@@H]3N)nc21 [CGP74514A] , tested on CDK14/Cyclin Y (Homo sapiens)?
Data returned: 59.7

Data request: Which measured Inhibition at 10µM (%) belongs to CC(C)c1c2cc(-c3ccnc(N[C@H]4CC[C@H](NC5CCOCC5)CC4)n3)ccc2nn1C , tested on CDK14/Cyclin Y (Homo sapiens)?
Data returned: 90.3

---

For each record, write down the corresponding inhibition at 10 µM.
- target under test: CDK4/Cyclin D1 (Homo sapiens)
- Sequence (P11802 whole entry): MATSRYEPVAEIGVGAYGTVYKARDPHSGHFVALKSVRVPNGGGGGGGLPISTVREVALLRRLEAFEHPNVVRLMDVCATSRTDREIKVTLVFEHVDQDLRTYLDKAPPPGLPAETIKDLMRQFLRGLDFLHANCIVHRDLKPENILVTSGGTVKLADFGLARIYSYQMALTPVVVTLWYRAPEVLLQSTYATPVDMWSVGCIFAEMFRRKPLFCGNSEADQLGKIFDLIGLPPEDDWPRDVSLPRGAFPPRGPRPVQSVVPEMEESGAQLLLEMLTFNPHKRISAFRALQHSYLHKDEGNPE
- Sequence (P24385 whole entry partner): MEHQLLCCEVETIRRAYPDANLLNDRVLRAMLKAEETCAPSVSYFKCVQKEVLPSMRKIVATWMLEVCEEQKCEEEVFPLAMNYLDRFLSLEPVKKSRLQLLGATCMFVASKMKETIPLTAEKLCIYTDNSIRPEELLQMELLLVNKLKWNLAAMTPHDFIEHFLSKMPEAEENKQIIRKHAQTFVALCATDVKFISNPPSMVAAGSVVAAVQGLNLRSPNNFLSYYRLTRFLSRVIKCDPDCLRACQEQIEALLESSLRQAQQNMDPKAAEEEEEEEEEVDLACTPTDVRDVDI
- method description: NanoBRET live-cell target engagement, NanoLuc-CDK4/Cyclin D1 in HEK-293
- Assay type: binding
- condition summary: CDK4/D1; 10µM; read-out: Inhibition at 10µM (%) Replicate 2
Answer with a number only, understood to be in %.

Data request: If you can, please state the reported inhibition at 10 µM value of CC(C)c1cnn2c(NCc3ccccc3)cc(NCCCCCCN)nc12 [BS-181] .
Data returned: 55.8

Data request: If you can, please state the reported inhibition at 10 µM value of Cc1ncc(-c2ccnc(Nc3ccc(S(C)(=O)=O)cc3)n2)n1C(C)C [AZD5438] .
Data returned: 90.9

Data request: If you can, please state the reported inhibition at 10 µM value of CCN1CCN(Cc2ccc(NC(=O)Nc3ccc(Oc4cc(NC)ncn4)cc3)cc2C(F)(F)F)CC1 [AST-487] .
Data returned: 95.3

Data request: If you can, please state the reported inhibition at 10 µM value of COc1cc(F)ccc1-c1cc(Nc2cc(CS(C)(=N)=O)ccn2)ncc1F (centres unmarked) [BAY-1251152] .
Data returned: 83.4

Data request: If you can, please state the reported inhibition at 10 µM value of CCN1CCN(Cc2ccc(Nc3ncc(F)c(-c4cc(F)c5nc(C)n(C(C)C)c5c4)n3)nc2)CC1 [Abemaciclib] .
Data returned: 99

Data request: If you can, please state the reported inhibition at 10 µM value of C[C@H]1CC[C@H](n2c3cnccc3c3cnc(Nc4ccc5c(n4)CCN(C(=O)CO)C5)nc32)CC1 [AMG 925] .
Data returned: 87.7

Data request: If you can, please state the reported inhibition at 10 µM value of COc1cc(F)ccc1-c1ncnc(Nc2cccc(C[S@](C)(=N)=O)c2)n1 [Atuveciclib] .
Data returned: 9.3

Data request: If you can, please state the reported inhibition at 10 µM value of CCCCOc1c(C(=O)c2c(F)cc(C)cc2F)c[nH]c2nncc1-2 [BMS-265246] .
Data returned: 49.3

---

- target under test: CDK20/Cyclin H (Homo sapiens)
- Sequence (Q8IZL9 whole entry): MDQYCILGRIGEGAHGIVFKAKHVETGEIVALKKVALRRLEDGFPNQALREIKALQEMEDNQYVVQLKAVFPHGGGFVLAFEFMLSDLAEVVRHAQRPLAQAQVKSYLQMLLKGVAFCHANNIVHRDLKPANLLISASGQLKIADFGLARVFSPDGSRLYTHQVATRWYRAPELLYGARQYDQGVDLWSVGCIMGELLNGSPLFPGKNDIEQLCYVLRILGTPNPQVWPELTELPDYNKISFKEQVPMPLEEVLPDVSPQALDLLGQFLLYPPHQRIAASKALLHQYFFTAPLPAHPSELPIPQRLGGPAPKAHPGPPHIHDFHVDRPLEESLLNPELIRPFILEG
- Sequence (P51946 whole entry partner): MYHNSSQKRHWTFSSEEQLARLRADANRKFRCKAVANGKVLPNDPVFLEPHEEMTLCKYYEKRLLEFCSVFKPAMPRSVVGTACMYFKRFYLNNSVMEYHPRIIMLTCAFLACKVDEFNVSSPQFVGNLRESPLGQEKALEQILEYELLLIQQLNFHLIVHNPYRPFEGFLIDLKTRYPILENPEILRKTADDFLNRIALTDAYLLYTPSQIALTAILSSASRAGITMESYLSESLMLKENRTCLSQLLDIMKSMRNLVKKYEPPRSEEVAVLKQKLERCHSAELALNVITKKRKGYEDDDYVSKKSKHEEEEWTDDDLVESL
- method description: NanoBRET live-cell target engagement, NanoLuc-CDK20/Cyclin H in HEK-293
- Format: binding
- condition summary: 10µM; independent experiment 2
reported property: CDK20/H Inhibition at 10µM (%)
Answer with a number only, understood to be in %.

Data request: If you can, please state the reported CDK20/H Inhibition at 10µM (%) value of O=C1NC(=NCc2cccs2)S/C1=C\c1ccc2ncccc2c1 [RO-3306] .
Data returned: 19.4

Data request: If you can, please state the reported CDK20/H Inhibition at 10µM (%) value of O=C1NCCc2[nH]c(-c3ccncc3)cc21 [PHA-767491] .
Data returned: 0.755

Data request: If you can, please state the reported CDK20/H Inhibition at 10µM (%) value of Cc1c(Br)c(Br)c2c3c1nc(N1CCNCC1)n3CCC2.Cl [SEL 120-34A] .
Data returned: 31.3

Data request: If you can, please state the reported CDK20/H Inhibition at 10µM (%) value of CN(C)C/C=C/C(=O)Nc1ccc(C(=O)Nc2cccc(Nc3ncc(Cl)c(-c4c[nH]c5ccccc45)n3)c2)cc1 [THZ1] .
Data returned: 90.1

---

For each record, write down the corresponding IC50.
- target under test: CDK3/Cyclin E1 (Homo sapiens)
- Sequence (Q00526 whole entry): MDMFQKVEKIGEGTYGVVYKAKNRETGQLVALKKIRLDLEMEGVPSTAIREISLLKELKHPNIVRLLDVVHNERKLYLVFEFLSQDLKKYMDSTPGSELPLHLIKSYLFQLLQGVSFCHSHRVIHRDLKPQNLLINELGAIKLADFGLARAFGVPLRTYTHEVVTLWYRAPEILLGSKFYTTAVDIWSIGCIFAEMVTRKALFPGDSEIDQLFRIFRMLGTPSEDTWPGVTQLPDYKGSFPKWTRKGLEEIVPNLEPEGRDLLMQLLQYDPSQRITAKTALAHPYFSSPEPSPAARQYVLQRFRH
- Sequence (P24864 whole entry partner): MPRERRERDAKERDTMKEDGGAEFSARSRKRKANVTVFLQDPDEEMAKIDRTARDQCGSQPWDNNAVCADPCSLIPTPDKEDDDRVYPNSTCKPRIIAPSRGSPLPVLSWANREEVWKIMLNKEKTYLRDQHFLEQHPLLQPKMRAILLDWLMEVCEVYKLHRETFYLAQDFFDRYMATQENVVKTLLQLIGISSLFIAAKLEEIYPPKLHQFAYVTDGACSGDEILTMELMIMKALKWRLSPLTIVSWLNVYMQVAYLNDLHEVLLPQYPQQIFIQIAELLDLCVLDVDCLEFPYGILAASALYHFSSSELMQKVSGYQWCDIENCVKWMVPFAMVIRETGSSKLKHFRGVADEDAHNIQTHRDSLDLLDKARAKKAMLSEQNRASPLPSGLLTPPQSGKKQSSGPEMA
- method description: NanoBRET live-cell target engagement, CDK3-NanoLuc/Cyclin E1 in HEK-293
- Type: binding
- condition summary: CDK3/E1; experiment 1; read-out: IC50
Answer with a number only, understood to be in µM.

Data request: If you can, please state the reported IC50 value of CS(=O)(=O)N1CCC(NC(=O)c2[nH]ncc2NC(=O)c2c(Cl)cccc2Cl)CC1 [NVP-LCQ195] .
Data returned: 0.036

Data request: If you can, please state the reported IC50 value of CCn1cnc2c(Nc3cccc(Cl)c3)nc(N[C@@H]3CCCC[C@@H]3N)nc21 [CGP74514A] .
Data returned: 0.039

Data request: If you can, please state the reported IC50 value of CC(C)c1cnn2c(NCc3ccccc3-n3cccn3)nc(OC3CCCNC3)nc12 (stereo not drawn) [LDC4297] .
Data returned: 0.121

---

- target under test: CDK16/Cyclin Y (Homo sapiens, UniProt Q00536)
- Sequence (Q00536 whole entry, one chain of several): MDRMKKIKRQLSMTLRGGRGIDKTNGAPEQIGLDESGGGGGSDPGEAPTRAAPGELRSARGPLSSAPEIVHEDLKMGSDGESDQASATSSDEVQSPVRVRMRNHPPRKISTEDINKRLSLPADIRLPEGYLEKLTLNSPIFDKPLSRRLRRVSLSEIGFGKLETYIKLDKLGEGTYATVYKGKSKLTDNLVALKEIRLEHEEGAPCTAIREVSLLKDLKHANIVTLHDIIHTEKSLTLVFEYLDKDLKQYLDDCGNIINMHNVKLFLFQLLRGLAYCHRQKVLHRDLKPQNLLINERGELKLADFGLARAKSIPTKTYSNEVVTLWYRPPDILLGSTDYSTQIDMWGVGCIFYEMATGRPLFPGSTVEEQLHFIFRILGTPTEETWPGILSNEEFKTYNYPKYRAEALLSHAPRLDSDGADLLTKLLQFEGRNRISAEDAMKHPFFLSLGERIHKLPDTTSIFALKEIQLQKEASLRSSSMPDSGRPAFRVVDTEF
- method description: NanoBRET live-cell target engagement, CDK16-NanoLuc/Cyclin Y in HEK-293
- Type: binding
- condition summary: CDK16/Y; 10µM
reported property: Inhibition at 10µM (%) Replicate 2
Answer with a number only, understood to be in %.

Data request: If you can, please state the reported Inhibition at 10µM (%) Replicate 2 value of CCC(CO)Nc1nc(Nc2cccc(-c3ccccn3)c2)c2ncn(C(C)C)c2n1.Cl.O [(R) - DRF053] .
Data returned: 16.9

Data request: If you can, please state the reported Inhibition at 10µM (%) Replicate 2 value of CNC1CCN(C(=O)c2ccc(Nc3ncc(F)c(-c4cnc(C)n4C(C)C)n3)cc2)C1 (stereo not shown) .
Data returned: 91.4

Data request: If you can, please state the reported Inhibition at 10µM (%) Replicate 2 value of CC(C)c1cnn2c(NCc3ccccc3)cc(N[C@@H](CO)[C@H](O)CO)nc12 .
Data returned: 83.8

Data request: If you can, please state the reported Inhibition at 10µM (%) Replicate 2 value of O=C(Nc1c[nH]nc1-c1ccccn1)c1nn(C2CCNCC2)cc1Cl .
Data returned: -9.2

---

- target under test: CDK5/CDK5R1 (Homo sapiens)
- Sequence (Q00535 whole entry): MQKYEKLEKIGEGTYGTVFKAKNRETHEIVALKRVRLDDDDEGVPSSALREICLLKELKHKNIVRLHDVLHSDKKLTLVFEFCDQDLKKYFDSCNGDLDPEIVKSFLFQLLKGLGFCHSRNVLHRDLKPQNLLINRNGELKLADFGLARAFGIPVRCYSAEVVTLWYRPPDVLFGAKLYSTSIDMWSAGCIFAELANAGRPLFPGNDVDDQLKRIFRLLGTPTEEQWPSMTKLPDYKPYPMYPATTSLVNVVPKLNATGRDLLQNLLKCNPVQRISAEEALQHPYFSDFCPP
- Sequence (Q15078 whole entry partner): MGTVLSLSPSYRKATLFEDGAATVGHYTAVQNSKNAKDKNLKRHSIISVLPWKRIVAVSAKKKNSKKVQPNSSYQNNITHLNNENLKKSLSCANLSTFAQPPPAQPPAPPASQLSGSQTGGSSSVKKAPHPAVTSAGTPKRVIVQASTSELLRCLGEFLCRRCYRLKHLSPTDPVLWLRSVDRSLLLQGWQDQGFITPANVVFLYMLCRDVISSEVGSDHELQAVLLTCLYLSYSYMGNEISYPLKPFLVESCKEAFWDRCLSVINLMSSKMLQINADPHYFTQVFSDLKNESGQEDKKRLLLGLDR
- method description: NanoBRET live-cell target engagement, CDK5-NanoLuc/CDK5R1 in HEK-293
- Type: binding
- condition summary: CDK5/CDK5R1; 10µM; average of replicates
reported property: Inhibition at 10µM (%) Average
Answer with a number only, understood to be in %.

Data request: If you can, please state the reported Inhibition at 10µM (%) Average value of CC(C)c1cnn2c(NCc3ccccc3)cc(N[C@@H](CO)[C@H](O)CO)nc12 [BS-194] .
Data returned: 92.3

Data request: If you can, please state the reported Inhibition at 10µM (%) Average value of CCC(CO)Nc1nc(Nc2cccc(-c3ccccn3)c2)c2ncn(C(C)C)c2n1.Cl.O [(R) - DRF053] .
Data returned: 70.6

Data request: If you can, please state the reported Inhibition at 10µM (%) Average value of CNC1CCN(C(=O)c2ccc(Nc3ncc(F)c(-c4cnc(C)n4C(C)C)n3)cc2)C1 (stereo not shown) [AZD5597] .
Data returned: 93.9

Data request: If you can, please state the reported Inhibition at 10µM (%) Average value of O=C(Nc1c[nH]nc1-c1ccccn1)c1nn(C2CCNCC2)cc1Cl [BDP5290] .
Data returned: 2.3

---

- target under test: CDK18/Cyclin Y (Homo sapiens)
- Sequence (Q07002 whole entry): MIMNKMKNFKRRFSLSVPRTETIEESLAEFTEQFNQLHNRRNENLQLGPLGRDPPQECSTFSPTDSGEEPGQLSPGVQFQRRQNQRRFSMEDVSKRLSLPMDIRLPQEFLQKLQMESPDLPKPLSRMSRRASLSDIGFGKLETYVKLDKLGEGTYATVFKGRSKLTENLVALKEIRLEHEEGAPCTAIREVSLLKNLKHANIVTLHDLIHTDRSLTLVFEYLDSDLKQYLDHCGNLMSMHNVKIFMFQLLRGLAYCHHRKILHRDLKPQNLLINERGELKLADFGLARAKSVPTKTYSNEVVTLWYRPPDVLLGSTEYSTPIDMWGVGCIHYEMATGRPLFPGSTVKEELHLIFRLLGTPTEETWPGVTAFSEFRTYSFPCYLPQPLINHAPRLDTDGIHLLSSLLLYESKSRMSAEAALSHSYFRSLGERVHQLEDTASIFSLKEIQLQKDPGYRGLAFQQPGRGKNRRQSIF
- Sequence (Q8ND76 whole entry partner): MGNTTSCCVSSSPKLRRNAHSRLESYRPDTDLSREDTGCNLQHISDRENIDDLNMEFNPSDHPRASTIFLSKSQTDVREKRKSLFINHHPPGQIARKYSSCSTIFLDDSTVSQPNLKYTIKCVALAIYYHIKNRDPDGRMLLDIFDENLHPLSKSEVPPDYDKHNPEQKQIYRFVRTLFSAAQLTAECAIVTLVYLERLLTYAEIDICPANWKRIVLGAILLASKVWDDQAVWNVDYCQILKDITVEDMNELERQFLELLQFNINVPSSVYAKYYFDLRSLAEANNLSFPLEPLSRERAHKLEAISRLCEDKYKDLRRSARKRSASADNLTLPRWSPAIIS
- method description: NanoBRET live-cell target engagement, CDK18-NanoLuc/Cyclin Y in HEK-293
- Type: binding
- condition summary: CDK18/Y; experiment 2
For each record, write down the corresponding Inhibition at 10µM (%).
Answer with a number only, understood to be in %.

Data request: If you can, please state the reported Inhibition at 10µM (%) value of CS(=O)(=O)N1CCC(NC(=O)c2[nH]ncc2NC(=O)c2c(Cl)cccc2Cl)CC1 [NVP-LCQ195] .
Data returned: 100.6

Data request: If you can, please state the reported Inhibition at 10µM (%) value of CC(C)c1c2cc(-c3ccnc(N[C@H]4CC[C@H](NC5CCOCC5)CC4)n3)ccc2nn1C [LY2857785] .
Data returned: 100.3

Data request: If you can, please state the reported Inhibition at 10µM (%) value of CN1CCC(c2c(O)cc(O)c3c(=O)cc(-c4ccccc4Cl)oc23)C1CO (stereo not drawn) [P276-00] .
Data returned: 59.3

Data request: If you can, please state the reported Inhibition at 10µM (%) value of CCn1cnc2c(Nc3cccc(Cl)c3)nc(N[C@@H]3CCCC[C@@H]3N)nc21 [CGP74514A] .
Data returned: 92.6

Data request: If you can, please state the reported Inhibition at 10µM (%) value of CNc1nc(C)c(-c2nc(Nc3cccc(S(N)(=O)=O)c3)ncc2F)s1 [CDKI-73] .
Data returned: 102.2

Data request: If you can, please state the reported Inhibition at 10µM (%) value of CC(C)c1cnn2c(NCc3ccccc3-n3cccn3)nc(OC3CCCNC3)nc12 (stereo not drawn) [LDC4297] .
Data returned: 101.4
